Data provenance: the supplement of paper PMC12764529

# Protocol details: folding stability dG unfold (combined trypsin and chymotrypsin); higher = more stable
Kindly state folding stability dG unfold for each of the entries shown.
Give the value, in units of kcal/mol, as a plain number.

Request: Tell me the measured folding stability dG unfold of SAGGSAGGSAGEPEYVRVRIRVRRRVRNKETGKWEEKEVELTLVFPSKEEALKALEELGLSAGGSAGGSAGG [r11_984_TrROS_Hall] , please.
Response: 4.02

Request: Tell me the measured folding stability dG unfold of SAGGSPKPVPVTITSVTSTSVEVYLPSTGATFTFNLNEEKTLTLPDGSKIYFTFNSDGSVTATVIEYGSAGG [r13_352_TrMRF] , please.
Response: 4.83

Request: Tell me the measured folding stability dG unfold of SAGGMTLDQLKHALRHKKMQIHEPNPNGWYVTFQNPDGKPPTFPVKSDDELRDILRDAPGFEVEVQPVSAGG [r13_600_TrROS] , please.
Response: 0.608

Request: Tell me the measured folding stability dG unfold of SAGGSAGGKEVKIEIYDSDDGILLVEVPDLDDAVEAVEKLGVELELVPYDPEKGRLLLRLRIPGSAGGSAGG [r6_510_TrMRF] , please.
Response: 0.64

Request: Tell me the measured folding stability dG unfold of SAGGSSIKVTITDKNGNEYEIEIPSSLSLEEAKEKVKEYLEKKGYKVESITVENLPPGEAEIKVLKSAGGSA [r2_148_JUSTAS] , please.
Response: 0.423

Request: Tell me the measured folding stability dG unfold of SAGATTTTTTTNPADDTTVTTTTTTTGNTSTVTSTSTSGSTSTLTTTTVTFTSPTTTTTTTTTTPVPSSAGG [r19_292_JUSTAS] , please.
Response: 0.264

====

# Protocol details: folding stability dG unfold from trypsin proteolysis; higher = more stable
Measured parameter: folding stability dG unfold (kJ/mol)
Give the value, in units of kJ/mol, as a plain number.

Request: Tell me the measured folding stability dG unfold of SAPLTPEEAEEWAETLADELADKAGIPNVEIKVEPSPDGYWTAEIRFPNNGKKIRITWENGRPKITEIESAG [r14_925_TrROS] , please.
Response: 11.9

Request: Tell me the measured folding stability dG unfold of SAGGSAGGSAGGSTILILDPETKKLYLIRIEKREDGKEELKLKVYEFDLKTGEMKEYELSAGGSAGGSAGGS [r10_1041_TrROS_Hall] , please.
Response: 13.6

Request: Tell me the measured folding stability dG unfold of SAPKIDSISIMWPGNHWYISIWYPDKNGEPMKEVMFPFESPEDLKDQIEELSPPGDVTVDIYPMPPDAFSAG [r14_964_TrROS] , please.
Response: 5.76

Request: Tell me the measured folding stability dG unfold of SAGGSAGGSAGGSMYTLLSTENRPDPNSSKPVTTKTYKLPDGSTVVVTEYPDSVEEKPLVSAGGSAGGSAGG [r7_479_JUSTAS] , please.
Response: -0.00466

Request: Tell me the measured folding stability dG unfold of SLSEEEAKDNPEEANEKMQPPPVPPIPLPVPIRNPDNKQEFPAPFEIRTLPNHLEFRFPGNGKPFPVPIDSA [r9_548_TrROS] , please.
Response: 10.6

Request: Tell me the measured folding stability dG unfold of SAGGMPPVKVPVKVTISMKDPKTGKTFTVPVEKVATSEEDLEEIKKEVEELAKELKEKGYKEIEIKIESAGG [r13_360_JUSTAS] , please.
Response: 8.97

Request: Tell me the measured folding stability dG unfold of SAGGSAGGYIMIPPGAEIDVNPENGKIKIKFRNPDNGEEEKITFDVPPGVKIHMWDNWIMIELPSAGGSAGG [r6_804_TrROS] , please.
Response: 13.8
